These measurements were taken from paper PMC8373237.

System: P. aeruginosa PA103 T3SS (ExoU secretion)
Format: cell-based, Pseudomonas aeruginosa
measurement context: read-out: IC50 (Table S1)
pIC50: −log10 of the molar value. Square brackets hold non-standard residues; d marks the D form. Peptide text beside a SMILES is read from it. Nphe = O=C(O)CNCc1ccccc1; NPrGly = CCCNCC(=O)O
pIC50 reference
readout name: pIC50

INSERT INTO measurements (compound, assay_value) VALUES
  ('CCCN1CC(=O)N(Cc2ccccc2)CC(=O)N[C@H](CC(C)C)C(=O)N[C@@H](C)C(=O)N[C@@H](CC(C)C)C(=O)N[C@H](Cc2ccccc2)C1=O [1EpDN 4Ala, EpD1,2N 4Ala] (cyclo(AL[dF][NPrGly][Nphe][dL]))', '< 3.00'),
  ('CCCN1CC(=O)N(Cc2ccccc2)CC(=O)N[C@H](C)C(=O)N[C@@H]([C@@H](C)CC)C(=O)N[C@@H](CC(C)C)C(=O)N[C@H](Cc2ccccc2)C1=O [1EpDN 3Ala, EpD1,2N 3Ala] (cyclo(IL[dF][NPrGly][Nphe][dA]))', '< 3.00'),
  ('CCCN1CC(=O)N(Cc2ccccc2)CC(=O)N[C@H](CC(C)C)C(=O)N[C@@H]([C@@H](C)CC)C(=O)N[C@@H](CC(C)C)C(=O)N[C@H](C)C1=O [1EpDN 6Ala, EpD1,2N 6Ala] (cyclo(IL[dA][NPrGly][Nphe][dL]))', '< 3.00');

---

System: P. aeruginosa PA103 T3SS (ExoU secretion)
Assay type: cell-based, Pseudomonas aeruginosa
measurement context: read-out: IC50 (Table S1)
Square brackets hold non-standard residues; d marks the D form. Peptide text beside a SMILES is read from it. Nphe = O=C(O)CNCc1ccccc1; NPrGly = CCCNCC(=O)O; Sar = CNCC(=O)O
readout name: IC50

INSERT INTO measurements (compound, assay_value) VALUES
  ('CCCN1CC(=O)N(Cc2ccccc2)CC(=O)N[C@H](CC(C)C)C(=O)N[C@@H]([C@@H](C)CC)C(=O)N[C@@H](C)C(=O)N[C@H](Cc2ccccc2)C1=O [1EpDN 5Ala, EpD1,2N 5Ala] (cyclo(A[dF][NPrGly][Nphe][dL]I))', '> 1000 µM'),
  ('CCCN1CC(=O)N(C)CC(=O)N[C@@H](CC(C)C)C(=O)N[C@@H]([C@@H](C)CC)C(=O)N[C@H](CC(C)C)C(=O)N[C@H](Cc2ccccc2)C1=O [4EpDN 2Sar, 4-EpD1,2N 2Sar] (cyclo(I[dL][dF][NPrGly][Sar]L))', '~140 µM'),
  ('CCCN1CC(=O)N(Cc2ccccc2)CC(=O)N[C@H](CC(C)C)C(=O)N[C@@H]([C@@H](C)CC)C(=O)N[C@H](CC(C)C)C(=O)N[C@@H](Cc2ccccc2)C1=O [6EpDN, 6-EpD1,2N] (cyclo(F[NPrGly][Nphe][dL]I[dL]))', '> 1000 µM');
